Reference for the values: patent US20240299562A1

system: LS 174T cells; assay: WST-1 cell viability, LS 174T colorectal cancer cells; format: cell-based; details: Homo sapiens, LS174T; LS 174T (CrC); 72 hrs, WST-1 (Table 1); read-out: Absolute IC50
pIC50: −log10 of the molar value.
experimental_endpoint: pIC50

>  <compound>
COc1cccc2c1C(=O)c1c(O)c3c(c(O)c1C2=O)C[C@@](O)(C(=O)CO)C[C@@H]3O[C@H]1C[C@H](N)[C@H](O)[C@H](C)O1 [Doxorubicin, reference compound]

>  <data_value>
8.00

$$$$

====

system: MDA-MB-468 cells; experiment: WST-1 cell viability, MDA-MB-468 triple negative breast cancer cells; type: cell-based; settings: Homo sapiens; MDA-MB-468 (TNBC); 72 hrs, WST-1 (Table 1); read-out: Absolute IC50

>  <compound>
COc1cccc2c1C(=O)c1c(O)c3c(c(O)c1C2=O)C[C@@](O)(C(=O)CO)C[C@@H]3O[C@H]1C[C@H](N)[C@H](O)[C@H](C)O1 [Doxorubicin, reference compound]

>  <IC50>
< 10 nM

$$$$
